- Tested on: NCI-H460
- Assay remarks: NCI tumour cell line growth inhibition, 48 h
The source made the active and inactive calls. Rule as the data show it: active = GI50 up to about 1.1 µM and inactive = higher.
Form entry, call: pick from 1.0 (active), 0.0 (inactive)

Example cases with answers are listed next.
Give the logged outcome of this assay for the following molecule: CCOc1ccc(-c2oc(/C=N/NS(=O)(=O)c3ccc(C)cc3)c([N+](=O)[O-])c2-c2ccc(OCC)cc2)cc1
0.0

Give the logged outcome of this assay for the following molecule: O=C1NC(=S)NC(=O)C1C(c1ccccc1[N+](=O)[O-])C1C(=O)NC(=S)NC1=O.c1ccncc1
0.0

Give the logged outcome of this assay for the following molecule: O=C(N/N=C1\C(=O)Nc2ccc(Br)cc21)/C(O)=C/C(=O)c1ccc(Cl)cc1
0.0

Give the logged outcome of this assay for the following molecule: CN(C)CCCNc1c2ccccc2[n+]([O-])c2ccccc12
0.0

Give the logged outcome of this assay for the following molecule: CCCCc1c2cnccc2c(CCCC)c2c1[nH]c1ccccc12
0.0

Next:
Give the logged outcome of this assay for the following molecule: CSC(=N)N1N=C2/C(=C/c3ccccc3)CCC[C@H]2[C@H]1c1ccccc1
0.0

Give the logged outcome of this assay for the following molecule: COc1cc(C2c3cc4c(cc3OC(NNC(N)=O)C2C)OCO4)cc(OC)c1OC (stereo unspecified)
1.0

Give the logged outcome of this assay for the following molecule: O=C1CCC2COc3ccc(O)c1c32 (stereo unspecified)
0.0

Give the logged outcome of this assay for the following molecule: CN(C)CCNc1ccc2nnn3c4ccccc4c(=O)c1c23
0.0

Give the logged outcome of this assay for the following molecule: Oc1cc2c3c(c1)CCCN3CCC2
0.0

Give the logged outcome of this assay for the following molecule: C[C@@H](C[C@H]1OC(C)(C)O[C@@H]1C(C)(C)O)[C@H]1CC=C2[C@]3(C)[C@H](O)C[C@H]4C(C)(C)[C@H](O)CC[C@]4(C)[C@H]3CC[C@]21C
0.0

Give the logged outcome of this assay for the following molecule: CC(C)=CCN1c2ccc(Cl)cc2NC(=O)CC1C (stereo unspecified)
0.0

Give the logged outcome of this assay for the following molecule: Cc1ccc(-c2cc(-c3ccc(Cl)cc3)nc(/N=C3\C(=O)N(CN4CCOCC4)c4ccc(Cl)cc43)n2)cc1
0.0

Give the logged outcome of this assay for the following molecule: CS(=O)(=O)OCC1CN(S(C)(=O)=O)c2cc(O)ccc21 (stereo unspecified)
0.0
